Data provenance: PubChem BioAssay (NCI)

What growth was measured for each of the following?
# Test system: IGROV1 ovarian
# TEST METHOD NOTES: NCI-60 one-dose screen, 48 h (100 = growth as untreated, 0 = no growth, -100 = all killed)
# ASSAY SETUP: 10 µM unless noted
Compounds without any hit were thinned out: in the full panel of roughly 83,000, 20% have a hit. The source made the active and inactive calls. The calls were made as follows: active = growth percent below 10; inactive = the rest.

Query: # query: growth of entry COC(=O)Cc1cc(COC(C)=O)ccc1C
Response: 107% (inactive)

Query: # query: growth of entry O=C(CC(CC(=O)c1ccccc1)c1ccccn1)c1ccccc1
Response: 96.8% (inactive)

Query: # query: growth of entry C=C1SC(=Nc2c(C)cccc2C)N(c2nc(Cl)nc(Cl)n2)C12CCCCC2
Response: 97.4% (inactive)

Query: # query: growth of entry Oc1cccnc1CN1CCCC1
Response: 102% (inactive)

Query: # query: growth of entry CC(=O)c1ccc(C)cc1
Response: 98.1% (inactive)

Query: # query: growth of entry NC(CO)(CO)c1ccccc1
Response: 104% (inactive)

Query: # query: growth of entry CCN(C(=O)Nc1ccccc1Cl)c1ccccc1
Response: 103% (inactive)

Query: # query: growth of entry CC1CCC(C(C)(C)[N+](C)(C)C)CC1 (stereo not given)
Response: 115% (inactive)

Query: # query: growth of entry O=C(O)C1CSC(c2ccccc2)N1 (stereo not given)
Response: 105% (inactive)

Query: # query: growth of entry CCOc1ccccc1NC(=O)CCl
Response: -12% (active)

Query: # query: growth of entry O=C(NC(=S)N1CC=CCC1)c1ccccc1
Response: 122% (inactive)

Query: # query: growth of entry O=Cc1ccc(F)cc1
Response: 95.2% (inactive)

Query: # query: growth of entry ClCC(Cl)C1CCC(Cl)C(Cl)C1 (stereo not given)
Response: 117% (inactive)

Query: # query: growth of entry CCCCCCCCCCCCCCCCOc1ccccc1NC(=O)CC(C)=O
Response: 88.4% (inactive)

Query: # query: growth of entry O=C(c1ccccc1O)N1CCCC1
Response: 103% (inactive)

Query: # query: growth of entry CC(C)c1ccccc1NC(=O)N1CCC(C(C)C)CC1
Response: 106% (inactive)

Query: # query: growth of entry Cc1onc(-c2c(F)cccc2Cl)c1-c1ncc(-c2ccc(Br)cc2)o1
Response: 36.8% (inactive)

Query: # query: growth of entry CCCCCCCCCCCCCC/C=C\C(CC(=O)O)C(=O)O (stereo not given)
Response: 117% (inactive)

Query: # query: growth of entry CCN(CC)CCOC(=O)Nc1c(C(C)C)cccc1C(C)C
Response: 100% (inactive)

Query: # query: growth of entry C=CCc1cc(OC)c(OC)c(OC)c1
Response: 110% (inactive)

Query: # query: growth of entry C/C(=N\O)c1ccccn1
Response: 110% (inactive)

Query: # query: growth of entry Nc1c(O)c(S(=O)(=O)O)c(O)c2c1C(=O)c1ccccc1C2=O
Response: 19.2% (inactive)

Query: # query: growth of entry CCC(/C=C\C(C)=O)CC
Response: 115% (inactive)

Query: # query: growth of entry CCc1ccccc1C(=O)N(CC)CC
Response: 103% (inactive)

Query: # query: growth of entry O=C(O)CSCC(=O)Nc1cc(C(F)(F)F)ccc1Cl
Response: 112% (inactive)

Query: # query: growth of entry COc1cccc2c1Cc1ccccc1-2
Response: 115% (inactive)

Query: # query: growth of entry CCNCC(C)(C)O
Response: 112% (inactive)

Query: # query: growth of entry O=c1n(CC2CO2)c(=O)n(CC2CO2)n1CC1CO1 (stereo not given)
Response: -4.87% (active)

Query: # query: growth of entry C=C1C(=O)C2CCN1CC2
Response: 122% (inactive)

Query: # query: growth of entry c1ccc2[nH]c(Cc3nc4ccccc4[nH]3)nc2c1
Response: 92.2% (inactive)

Query: # query: growth of entry O=C(CCl)Oc1ccc([N+](=O)[O-])cc1
Response: 106% (inactive)

Query: # query: growth of entry COC1OC(C(COC(C)=O)OC(C)=O)C(OC(C)=O)C(OC(C)=O)C1OC(C)=O (stereo not given)
Response: 104% (inactive)

Query: # query: growth of entry CC(C)N(C(=O)c1ccccc1)C(C)C
Response: 116% (inactive)

Query: # query: growth of entry CCOC(=O)C(=O)CC(=O)c1ccccc1
Response: 93.3% (inactive)

Query: # query: growth of entry CC(C)(C)NCCC(O)c1cc(C(F)(F)F)nc2c(C(F)(F)F)cccc12 (stereo not given)
Response: 71.7% (inactive)

Query: # query: growth of entry ClCC(Cl)[C@@H]1CC2C=CC1C2 (stereo not given in full)
Response: 114% (inactive)

Query: # query: growth of entry CC(=O)Nc1ccc(/C=C2\SC(=S)N(/C=C(\C(C)=O)C(N)=O)C2=O)cc1
Response: 105% (inactive)

Query: # query: growth of entry O=S(=O)(c1ccc(NC(=S)NCc2cccnc2)cc1)N1CCCCC1
Response: 62% (inactive)

Query: # query: growth of entry CN(C)c1ccc(/C=C/C(=O)c2ccc(NC(N)=O)cc2)cc1
Response: 99.7% (inactive)

Query: # query: growth of entry C=C(C)[C@@H]1CC[C@]2(CO)CC[C@]3(C)[C@H](CC[C@@H]4[C@@]5(C)CC[C@H](O)C(C)(C)[C@@H]5CC[C@]43C)[C@@H]12
Response: 35.9% (inactive)
